Every entry's value here was drawn from ChEMBL document CHEMBL5365500.

Assignment: determine reported survival at 96 h, 20 ug/ml for the given compounds.
- experiment-notes: Toxicity in Caenorhabditis elegans AU37 assessed as survival at 20 ug/ml measured for 4 days
- assay-conditions: at 20 µg/mL, time 4 day

- structure-smiles: "O=C(O)c1ccc(-n2cc(CNc3ccc(Cl)c(C(F)(F)F)c3)c(-c3cccc(F)c3)n2)cc1"
  survival at 96 h, 20 ug/ml: "> 80%"

Query (compound): `O=C(O)c1ccc(-n2cc(CNc3cc(Br)cc(C(F)(F)F)c3)c(-c3ccc(F)c(F)c3)n2)cc1` ; field requested: survival at 96 h, 20 ug/ml
> 80%

---

- Tested on: Enterococcus faecium
- experiment-notes: Antimicrobial activity against antibiotic-resistant Enterococcus faecium ATCC 700221 assessed as inhibition of visible growth measured after 20 to 24 hrs incubation by CLSI method
- Format: functional
- assay-conditions: time 20-24 hrs
property-label: MIC (µg/mL)
Answers are plain numbers, in µg/mL.

Observe how each entry below is paired with its result.
- structure-smiles: "O=C(O)c1ccc(-n2cc(CNc3cc(C(F)(F)F)cc(C(F)(F)F)c3)c(-c3ccc(F)cc3)n2)cc1"
  property-label: "MIC"
  quantity-unit: "µg/mL"
  reported-measurement: 2
- structure-smiles: "O=C(O)c1ccc(-n2cc(CNc3cc(F)c(F)c(F)c3)c(-c3ccc(F)c(F)c3)n2)cc1"
  property-label: "MIC"
  quantity-unit: "µg/mL"
  reported-measurement: 8
- structure-smiles: "O=C(O)c1ccc(-n2cc(CNc3cc(Cl)ccc3Cl)c(-c3cccc(F)c3)n2)cc1"
  property-label: "MIC"
  quantity-unit: "µg/mL"
  reported-measurement: 32

Each of the following entries comes with a recorded value; kindly state MIC for each.
1. O=C(O)c1ccc(-n2cc(CNc3cc(F)cc(C(F)(F)F)c3)c(-c3ccc(F)cc3)n2)cc1
2. O=C(O)c1ccc(-n2cc(CNc3cc(F)cc(C(F)(F)F)c3)c(-c3cccc(F)c3)n2)cc1
3. O=C(O)c1ccc(-n2cc(CNc3ccc(F)c(F)c3)c(-c3cccc(F)c3)n2)cc1

[8, 4, 32]
